Tested on: Clostridium difficile (Isolate ID ATCC 9689)
run_description: Bacterial Assay: Determination of Antibacterial Activity (MIC, broth microdilution or agar dilution)
Assay type: cell-based
cond: Clostridioides difficile, ATCC9689, 48 h, read-out: C. difficile MIC Activity Range
quantity_name: MIC

- COc1cc(CNC(=O)OCC(Oc2ccc(F)c(C(N)=O)c2F)c2nc(-c3ccc(C(F)(F)F)cc3)c(Br)o2)ccn1 (stereo not shown): < 1.01 µg/mL

Challenge: GET /values?readout=MIC&item= `NC(=O)c1c(F)ccc(OCCCc2nc(-c3ccc(OC(F)(F)F)cc3)cs2)c1F`
Response given: 1 to 4 µg/mL

Challenge: Entry CCCc1oc(C(C)Oc2ccc(F)c(C(N)=O)c2F)nc1-c1ccc(OC(F)(F)F)cc1 (stereo not shown) please
Response given: 4 to 16 µg/mL

Challenge: Entry `NC(=O)c1c(F)ccc(OCCCCCc2ccc(C(F)(F)F)cc2)c1F` please
Response given: < 1.01 µg/mL
